Test system: Phospho-Rb (Ser807/811)
assay.explanation: Phospho-Retinoblastoma (pRB) Cellular Assay
Format: cell-based
assay.conditions: Homo sapiens, OVCAR-3; NIH OVCAR3 cells, 24 hours; concentration giving 50% response
Reported IC50 maps to class as: bucket A: < 60 nM; bucket B: ≥ 60 nM and < 200 nM; bucket C: ≥ 200 nM

Below are worked cases with known answers.
| molecule | category.label |
| --- | --- |
| COc1c(COC(=O)Nc2ccc(Oc3ccc(F)cc3F)cc2)ccc2c1C(=O)N(C1CCC(=O)NC1=O)C2 (centres unmarked) | bucket A |
| O=C1CCC(N2Cc3ccc(COC(=O)Nc4ccc(Oc5ccc(F)c(F)c5)cc4)c(Oc4ccccc4)c3C2=O)C(=O)N1 (centres unmarked) | bucket B |
| O=C1CCC(N2Cc3ccc(COC(=O)Nc4ccc(Oc5ccc(F)c(F)c5)cc4)c(OC4CCC4)c3C2=O)C(=O)N1 (centres unmarked) | bucket B |
| COc1c(COC(=O)Nc2ccc(Oc3ccc(F)c(Cl)c3)cc2C)ccc2c1C(=O)N(C1CCC(=O)NC1=O)C2 (centres unmarked) | bucket B |
| COC(=O)COc1c(COC(=O)Nc2ccc(Oc3ccc(F)c(F)c3)cc2)ccc2c1C(=O)N(C1CCC(=O)NC1=O)C2 (centres unmarked) | bucket C |
| COc1c(COC(=O)Nc2ccc(Oc3ccc(F)c(C)c3)cc2F)ccc2c1C(=O)N(C1CCC(=O)NC1=O)C2 (centres unmarked) | bucket C |
| COc1c(COC(=O)Nc2ccc(Oc3ccc(F)cc3Cl)cc2F)ccc2c1C(=O)N(C1CCC(=O)NC1=O)C2 (centres unmarked) | bucket A |
| COc1c(COC(=O)Nc2ccc(Oc3ccccc3)cc2)ccc2c1C(=O)N(C1CCC(=O)NC1=O)C2 (centres unmarked) | bucket B |
| O=C1CCC(N2Cc3ccc(COC(=O)Nc4ccc(Oc5ccccc5Cl)cc4)c(OC4CCC4)c3C2=O)C(=O)N1 (centres unmarked) | bucket A |
| COc1c(COC(=O)Nc2ccc(Oc3ccccc3F)cc2)ccc2c1C(=O)N(C1CCC(=O)NC1=O)C2 (centres unmarked) | bucket B |

[Q] Into which category would you place COc1cc(Oc2ccc(F)cc2OC)ccc1NC(=O)OCc1ccc2c(c1OC)C(=O)N(C1CCC(=O)NC1=O)C2 (centres unmarked) ?
[A] bucket C

[Q] Lookup COc1c(COC(=O)Nc2ccc(Oc3ccc(F)c(C)c3)cc2C)ccc2c1C(=O)N(C1CCC(=O)NC1=O)C2 (centres unmarked)
[A] bucket C

---

tested.target: Cyclin E1 (Homo sapiens, UniProt P24864+Q96SW2)
Sequence (P24864 whole entry): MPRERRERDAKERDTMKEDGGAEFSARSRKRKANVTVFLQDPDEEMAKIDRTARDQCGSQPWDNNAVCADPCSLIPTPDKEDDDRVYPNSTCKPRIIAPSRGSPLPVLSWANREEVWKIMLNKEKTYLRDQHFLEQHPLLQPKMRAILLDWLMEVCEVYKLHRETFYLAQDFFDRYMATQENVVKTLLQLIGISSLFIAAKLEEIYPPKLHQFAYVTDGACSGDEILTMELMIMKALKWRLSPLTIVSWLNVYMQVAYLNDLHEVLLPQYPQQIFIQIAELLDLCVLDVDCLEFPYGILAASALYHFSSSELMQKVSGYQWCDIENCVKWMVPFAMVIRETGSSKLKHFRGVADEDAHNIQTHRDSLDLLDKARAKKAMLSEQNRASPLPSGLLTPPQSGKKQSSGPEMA
Sequence (Q96SW2 whole entry): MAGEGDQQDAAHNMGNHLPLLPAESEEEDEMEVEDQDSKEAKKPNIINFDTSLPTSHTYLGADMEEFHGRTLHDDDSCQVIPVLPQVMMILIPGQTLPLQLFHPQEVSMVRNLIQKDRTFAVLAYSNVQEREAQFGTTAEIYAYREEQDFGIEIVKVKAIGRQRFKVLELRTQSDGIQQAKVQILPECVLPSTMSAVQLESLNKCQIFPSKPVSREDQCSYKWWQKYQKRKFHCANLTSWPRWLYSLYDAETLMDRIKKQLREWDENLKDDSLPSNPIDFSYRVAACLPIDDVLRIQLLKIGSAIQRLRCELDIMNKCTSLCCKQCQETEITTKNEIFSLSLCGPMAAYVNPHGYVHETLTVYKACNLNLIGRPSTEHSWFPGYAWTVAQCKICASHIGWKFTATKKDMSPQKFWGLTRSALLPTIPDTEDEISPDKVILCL
Sequence (Q16531 whole entry partner): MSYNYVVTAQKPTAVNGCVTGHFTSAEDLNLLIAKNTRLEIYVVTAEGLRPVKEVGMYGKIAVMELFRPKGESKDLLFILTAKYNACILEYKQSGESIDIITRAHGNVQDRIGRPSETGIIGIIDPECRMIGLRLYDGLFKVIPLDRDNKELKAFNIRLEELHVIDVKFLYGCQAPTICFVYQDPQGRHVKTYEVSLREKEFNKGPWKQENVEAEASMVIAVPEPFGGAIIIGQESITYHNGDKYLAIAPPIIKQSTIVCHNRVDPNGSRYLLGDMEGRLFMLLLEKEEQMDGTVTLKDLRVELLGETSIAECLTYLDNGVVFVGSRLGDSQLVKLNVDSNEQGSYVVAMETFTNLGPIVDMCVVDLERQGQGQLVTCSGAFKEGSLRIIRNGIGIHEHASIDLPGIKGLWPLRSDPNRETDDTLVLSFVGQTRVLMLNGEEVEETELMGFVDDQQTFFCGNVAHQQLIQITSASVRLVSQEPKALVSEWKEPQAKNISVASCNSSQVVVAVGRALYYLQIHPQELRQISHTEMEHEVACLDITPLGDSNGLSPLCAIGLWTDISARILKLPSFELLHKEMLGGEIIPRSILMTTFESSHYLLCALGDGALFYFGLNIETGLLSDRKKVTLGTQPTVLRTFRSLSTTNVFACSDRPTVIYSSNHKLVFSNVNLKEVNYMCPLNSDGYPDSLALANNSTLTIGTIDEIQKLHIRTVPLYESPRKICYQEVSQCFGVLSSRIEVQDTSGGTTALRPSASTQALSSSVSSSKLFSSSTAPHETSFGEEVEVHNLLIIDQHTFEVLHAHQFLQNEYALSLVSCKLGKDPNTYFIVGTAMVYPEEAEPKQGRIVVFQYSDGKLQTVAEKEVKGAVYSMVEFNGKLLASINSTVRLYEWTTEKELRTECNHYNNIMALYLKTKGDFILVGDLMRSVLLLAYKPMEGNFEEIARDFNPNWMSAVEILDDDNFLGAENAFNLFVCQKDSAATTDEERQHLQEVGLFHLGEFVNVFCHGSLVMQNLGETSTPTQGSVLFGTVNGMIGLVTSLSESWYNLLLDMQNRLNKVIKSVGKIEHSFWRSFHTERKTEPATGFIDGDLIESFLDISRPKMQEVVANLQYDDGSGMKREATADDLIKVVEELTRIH
assay.explanation: Cyclin E1 Cellular Degradation Assay (MSD)
Type: cell-based
Design: endogenous in cells; host or cells: OVCAR3
assay.conditions: Cyclin E1 cellular degradation
parameter: DC50 (nM)
Enter your answer as a number in nM; do not include the unit.

Completed entries (count: 3):
| compound | readout.value |
| --- | --- |
| COc1c(COC(=O)Nc2ccc(Oc3ccc(F)c(C)c3)cc2)ccc2c1C(=O)N(C1CCC(=O)NC1=O)C2 (stereo not shown) | 129 |
| COc1c(COC(=O)Nc2ccc(Oc3cccc(F)c3)cc2C)ccc2c1C(=O)N(C1CCC(=O)NC1=O)C2 (stereo not shown) | 103 |
| COc1cc(Oc2ccc(F)cc2OC)ccc1NC(=O)OCc1ccc2c(c1OC)C(=O)N(C1CCC(=O)NC1=O)C2 (stereo not shown) | 463 |

[Q] GET /values?readout=DC50&item= CC(C)(O)COc1c(COC(=O)Nc2ccc(Oc3cc(F)c(F)c(F)c3)cc2F)ccc2c1C(=O)N(C1CCC(=O)NC1=O)C2 (stereo not shown)
[A] 42
